EC50 overview
System: avian influenza virus A/GuangZhou/99 (H9N2)
Test Protocol: organism not typed
Format: cell-based
Settings: MDCK, read-out: A/GuangZhou/99(H9N2) EC50 (µM)
# number only, unit µM dropped from output

Use the examples below as a reference point.
| Molecule | Display Unit | EC50 |
| --- | --- | --- |
| CCC(C)N(/N=C/c1ccccc1C(=O)O)c1nc(-c2ccccc2Cl)cs1 (stereo not shown) | µM | 45.4 |
| O=C(O)c1ccccc1/C=N/Nc1nc(-c2cc(Cl)ccc2Cl)cs1 | µM | 4.06 |
| CCCC(C)N(/N=C/c1ccccc1C(=O)O)c1nc(-c2ccccc2Cl)cs1 (stereo not shown) | µM | 22.2 |

For the molecule `O=C(O)c1cc(F)ccc1/C=N/Nc1nc(-c2ccccc2Cl)cs1` , what EC50 is on record?
0.33

Next: `Cc1sc(N(C)/N=C/c2ccccc2C(=O)O)nc1-c1ccccc1Cl`
8.27

One more molecule: `O=C(O)c1ccccc1/C=N/Nc1nc(-c2ccccc2Cl)cs1`
13.2

Can you handle `Cc1ccc(/C=N/Nc2nc(-c3ccccc3Cl)cs2)c(C(=O)O)c1` next?
0.33

Now give it for `CC(C)N(/N=C/c1ccccc1C(=O)O)c1nc(-c2ccccc2Cl)cs1` too.
8.37
